# System: basal forebrain cultures
# protocol.text: Basal Forebrain ChAT Activity Assay
# Assay type: cell-based, rat
# run.conditions: day six, maximum efficacy at 50 nM
parameter.measured: ChAT Activity maximum efficacy % of Control (conc)

Query: Test system basal forebrain cultures; read-out ChAT Activity maximum efficacy % of Control (conc); what value for CCSCc1ccc2c(c1)c1c3c(c4c5cc(C=Cc6ccccn6)ccc5n5c4c1n2C1(C)OC5CC1(O)C(=O)OC)C(=O)NC3 (centres unmarked) ?
Result: 136 (50 nM) % of Control

Query: What reported ChAT Activity maximum efficacy % of Control (conc) corresponds to COC(=O)C1(O)CC2OC1(C)n1c3ccc(C#CCN(C)Cc4ccccc4)cc3c3c4c(c5c6cc(Br)ccc6n2c5c31)C(=O)NC4 (centres unmarked) on basal forebrain cultures?
Result: 202 (50 nM) % of Control

Query: Request body: readout ChAT Activity maximum efficacy % of Control (conc), system basal forebrain cultures, query COC(=O)C1(O)CC2OC1(C)n1c3ccccc3c3c4c(c5c6cc(C#CCN(C)C)ccc6n2c5c31)C(=O)NC4 (centres unmarked) . Return the value.
Result: 166 (50 nM) % of Control

Query: // lookup ChAT Activity maximum efficacy % of Control (conc) | system=basal forebrain cultures | key= COCc1ccc2c(c1)c1c3c(c4c5cc(C=Cc6ccccn6)ccc5n5c4c1n2C1(C)OC5CC1(O)C(=O)OC)C(=O)NC3 (centres unmarked)
Result: 176 (50 nM) % of Control

Query: Provide value of ChAT Activity maximum efficacy % of Control (conc) for this record tested with basal forebrain cultures: CCOCc1ccc2c(c1)c1c3c(c4c5cc(C=Cc6ccccn6)ccc5n5c4c1n2C1(C)OC5CC1(O)C(=O)OC)C(=O)NC3 (centres unmarked)
Result: 154 (50 nM) % of Control

src = patent US6875865B1
